ASSAY OVERVIEW: Drug excretion in rat urine at 4 mg/kg,iv measured upto 72 hrs
Format: ADME, organism-based
TEST CONDITIONS: read-out: Drug excretion
MEASUREMENT NAME: dose excreted at 72 h (%)

>>> endpoint_result("CC(=O)O[C@@]12CO[C@@H]1C[C@H](O)[C@@]1(C)C(=O)[C@H](O)C3=C(C)[C@@H](OC(=O)[C@H](OC(=O)CCC(=O)NCCCC[C@H](NC(=O)CC[C@@H](NC(=O)[C@H](C)NC(=O)/C=C/c4ccc(F)cc4Cl)C(N)=O)C(=O)O)[C@@H](NC(=O)OC(C)(C)C)c4ccccc4)C[C@@](O)([C@@H](OC(=O)c4ccccc4)[C@H]21)C3(C)C")
9.38

###

ASSAY OVERVIEW: Volume of distribution at steady state in female Beagle dog at 4 mg/kg,iv measured upto 24 hrs
Format: ADME, organism-based, Canis lupus familiaris
TEST CONDITIONS: in vivo, read-out: Vdss
MEASUREMENT NAME: Vd (L/kg)

>>> endpoint_result("CC(=O)O[C@@]12CO[C@@H]1C[C@H](O)[C@@]1(C)C(=O)[C@H](O)C3=C(C)[C@@H](OC(=O)[C@H](OC(=O)CCC(=O)NCCCC[C@H](NC(=O)CC[C@@H](NC(=O)[C@H](C)NC(=O)/C=C/c4ccc(F)cc4Cl)C(N)=O)C(=O)O)[C@@H](NC(=O)OC(C)(C)C)c4ccccc4)C[C@@](O)([C@@H](OC(=O)c4ccccc4)[C@H]21)C3(C)C")
0.087

###

ASSAY OVERVIEW: AUC (0-t) in male rat at 4 mg/kg,iv measured upto 24 hrs
Type: ADME, organism-based
Parameters: time < 24 hrs, dose 4 mg/kg, route iv
TEST CONDITIONS: in vivo
MEASUREMENT NAME: AUC(0-t) at 24 h (ng·h/mL)

>>> endpoint_result("CC(=O)O[C@@]12CO[C@@H]1C[C@H](O)[C@@]1(C)C(=O)[C@H](O)C3=C(C)[C@@H](OC(=O)[C@H](OC(=O)CCC(=O)NCCCC[C@H](NC(=O)CC[C@@H](NC(=O)[C@H](C)NC(=O)/C=C/c4ccc(F)cc4Cl)C(N)=O)C(=O)O)[C@@H](NC(=O)OC(C)(C)C)c4ccccc4)C[C@@](O)([C@@H](OC(=O)c4ccccc4)[C@H]21)C3(C)C")
20700

###

ASSAY OVERVIEW: AUC (0-t) in male Beagle dog at 2 mg/kg,iv measured upto 24 hrs
Format: ADME, organism-based, Canis lupus familiaris
Set-up: dose 2 mg/kg, time < 24 hrs, route iv
TEST CONDITIONS: in vivo
MEASUREMENT NAME: AUC(0-t) at 24 h (ng·h/mL)

>>> endpoint_result("CC(=O)O[C@@]12CO[C@@H]1C[C@H](O)[C@@]1(C)C(=O)[C@H](O)C3=C(C)[C@@H](OC(=O)[C@H](OC(=O)CCC(=O)NCCCC[C@H](NC(=O)CC[C@@H](NC(=O)[C@H](C)NC(=O)/C=C/c4ccc(F)cc4Cl)C(N)=O)C(=O)O)[C@@H](NC(=O)OC(C)(C)C)c4ccccc4)C[C@@](O)([C@@H](OC(=O)c4ccccc4)[C@H]21)C3(C)C")
4840
